Just for reference, patent US20230192860A1 is where these values come from.

What Kd was measured for each of the following?
# system_under_test: T1, hVISTA-ECD 6-His tag (human, UniProt Q9H7M9 33-193)
# T1 construct: also called monovalent hVISTA-ECD; human VISTA
# assay_info: SPR 37 C, Ab on Protein A, pH 6.0
Numbers only, in nM.

# annotated cases, reported Kd shown
binder="P1-077847 (P1-068744 H50I E59Y) (antibody, V domains shown) VH: QVQLVESGGGVVQPGRSLRLSCAASGFTFSEYAMHWVRQAPGKGLEWVAIIWYDGSNKYYADSVKGRFTISRDNSKNTLYLQMNSLRAEDTAVYYCARDSGFYESYYFDEWGQGTLVTVSS VL: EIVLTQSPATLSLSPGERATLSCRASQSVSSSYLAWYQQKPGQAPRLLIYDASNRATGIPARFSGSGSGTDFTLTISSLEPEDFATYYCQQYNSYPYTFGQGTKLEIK" property=Kd endpoint_value=2.7
binder="P1-077843 (P1-068744 E102Y) (antibody, V domains shown) VH: QVQLVESGGGVVQPGRSLRLSCAASGFTFSEYAMHWVRQAPGKGLEWVAHIWYDGSNKYEADSVKGRFTISRDNSKNTLYLQMNSLRAEDTAVYYCARDSGFYESYYFDYWGQGTLVTVSS VL: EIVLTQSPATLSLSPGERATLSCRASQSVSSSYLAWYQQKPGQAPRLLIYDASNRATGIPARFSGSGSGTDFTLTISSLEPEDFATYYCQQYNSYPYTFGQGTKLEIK" property=Kd endpoint_value=33
binder="P1-077857 (P1-068744 E31S E100S) (antibody, V domains shown) VH: QVQLVESGGGVVQPGRSLRLSCAASGFTFSSYAMHWVRQAPGKGLEWVAHIWYDGSNKYEADSVKGRFTISRDNSKNTLYLQMNSLRAEDTAVYYCARDSGFYSSYYFDEWGQGTLVTVSS VL: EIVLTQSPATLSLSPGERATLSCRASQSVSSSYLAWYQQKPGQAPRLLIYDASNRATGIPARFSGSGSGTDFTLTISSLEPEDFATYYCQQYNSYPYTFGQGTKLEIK" property=Kd endpoint_value=120

Need Kd of P1-077841 (P1-068744 E100S) (antibody, V domains shown) VH: QVQLVESGGGVVQPGRSLRLSCAASGFTFSEYAMHWVRQAPGKGLEWVAHIWYDGSNKYEADSVKGRFTISRDNSKNTLYLQMNSLRAEDTAVYYCARDSGFYSSYYFDEWGQGTLVTVSS VL: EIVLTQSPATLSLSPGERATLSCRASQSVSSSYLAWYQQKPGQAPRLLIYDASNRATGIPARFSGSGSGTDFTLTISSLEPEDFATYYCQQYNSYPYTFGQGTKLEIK , thanks.
200
